target: human m4 receptors (Homo sapiens); construct: expressed in transfected cells; host or cells: CHO K1 cells; assay: Stimulation of cyclic AMP production in pertussis toxin-treated CHO-m4 cells; type: cell-based; details: forskolin present
measure: % Maximum Stimulation Compared to Oxotremorine-M (%)

molecule: O=C(N[C@@H]1c2cc(N=CN3CCCCC3)ccc2C[C@H]1O)c1cc(Cl)cc(Cl)c1
uom: %
recorded number: 36

molecule: O=C(NC1c2cc(N=CN3CCCC3)ccc2CC1O)c1cccnc1Cl (stereo not drawn)
uom: %
recorded number: 26

molecule: CCc1ccc(C(=O)N[C@@H]2c3cc(N=CN(C)C)ccc3C[C@H]2O)cc1
uom: %
recorded number: 7

molecule: Cc1cccc(C(=O)NC2c3cc(N=CN4CCCC4)ccc3CC2O)c1 (stereo not drawn)
uom: %
recorded number: 76

molecule: O=C(NC1c2cc(N=CN3CCCC3)ccc2CC1O)c1ccc(C(F)(F)F)cc1 (stereo not drawn)
uom: %
recorded number: 61

molecule: O=C(NC1c2cc(N=CN3CCCC3)ccc2CC1O)c1cccc([N+](=O)[O-])c1 (stereo not drawn)
uom: %
recorded number: 43

====

biological target: human m4 receptors (Homo sapiens, UniProt P08173); construct: expressed in transfected cells; host or cells: CHO K1 cells; test: Stimulation of cyclic AMP production in pertussis toxin-treated CHO-m4 cells; format: cell-based; settings: forskolin present
Sequence (P08173 whole entry): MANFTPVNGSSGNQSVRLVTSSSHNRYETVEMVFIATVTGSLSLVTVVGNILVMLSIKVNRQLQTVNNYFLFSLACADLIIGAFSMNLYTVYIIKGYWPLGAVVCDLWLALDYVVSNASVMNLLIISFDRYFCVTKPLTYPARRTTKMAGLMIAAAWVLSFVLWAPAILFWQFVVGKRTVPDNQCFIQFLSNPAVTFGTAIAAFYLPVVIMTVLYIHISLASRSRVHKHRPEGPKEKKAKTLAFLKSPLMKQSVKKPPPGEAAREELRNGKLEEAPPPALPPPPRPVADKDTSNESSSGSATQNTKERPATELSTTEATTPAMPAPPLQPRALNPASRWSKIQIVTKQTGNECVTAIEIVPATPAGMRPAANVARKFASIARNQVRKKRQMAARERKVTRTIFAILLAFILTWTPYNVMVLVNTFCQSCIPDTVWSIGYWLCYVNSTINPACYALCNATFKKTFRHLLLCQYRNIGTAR
measure: % Maximum Stimulation Compared to Oxotremorine-M

molecule: O=C(NC1c2cc(N=CN3CCCC3)ccc2CC1O)c1cc(F)ccc1F (centres unmarked)
result: <20%

molecule: O=C(N[C@@H]1c2cc(N=CN3CCCCC3)ccc2C[C@H]1O)c1cccc(Cl)c1Cl
result: 52%

molecule: O=C(NC1c2cc(N=CN3CCCC3)ccc2CC1O)C1CCC1 (centres unmarked)
result: <20%

molecule: O=C(NC1c2cc(N=CN3CCCC3)ccc2CC1O)c1cccc(F)c1 (centres unmarked)
result: <20%

molecule: O=C(NC1c2cc(N=CN3CCCC3)ccc2CC1O)c1c(F)ccc(F)c1F (centres unmarked)
result: <20%

====

target: A9L-m1 (Homo sapiens); test: m1 secondary assay: PI stimulation in A9L-m1; type: cell-based; details: A9L-m1; read-out: ED-50 Pl stim A9L-m1, nm
Sequence (P11229 whole entry): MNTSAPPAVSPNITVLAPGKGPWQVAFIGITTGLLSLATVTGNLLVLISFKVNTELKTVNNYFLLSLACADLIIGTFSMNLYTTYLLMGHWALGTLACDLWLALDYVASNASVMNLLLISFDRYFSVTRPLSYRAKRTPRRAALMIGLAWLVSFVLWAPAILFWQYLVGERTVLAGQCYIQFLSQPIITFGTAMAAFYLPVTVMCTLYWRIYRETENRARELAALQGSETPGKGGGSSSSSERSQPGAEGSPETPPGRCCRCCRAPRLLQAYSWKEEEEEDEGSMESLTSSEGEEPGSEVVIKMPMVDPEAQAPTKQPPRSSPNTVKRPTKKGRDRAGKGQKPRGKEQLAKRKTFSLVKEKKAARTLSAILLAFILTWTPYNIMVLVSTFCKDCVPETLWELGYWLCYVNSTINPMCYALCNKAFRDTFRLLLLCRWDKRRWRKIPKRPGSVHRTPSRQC
Kindly apply the following: Y if EC50 is less than 100 nM, N in every other case.

molecule: C/C(=N\c1ccc2c(c1)C(NC(=O)c1ccc(Cl)c(Cl)c1)C(O)C2)N(C)C (stereo not drawn) [Compound 128]
category label: Y
--
molecule: Cc1ccc(C(=O)NC2c3cc(/N=C/N4CCCC4)ccc3C[C@@H]2O)cc1Br (stereo partly drawn) [Compound 132]
category label: N
--
molecule: O=C(NC1c2cc(/N=C/N3CCCC3)ccc2C[C@@H]1O)c1ccc(F)c(Cl)c1 (stereo partly drawn) [Compound 133]
category label: N
--
molecule: O=C(NC1c2cc(/N=C/N3CCCC3)ccc2C[C@@H]1O)c1ccc(F)c(Br)c1 (stereo partly drawn) [Compound 131]
category label: Y
--
molecule: Cc1cc(C(=O)NC2c3cc(/N=C/N4CCCC4)ccc3C[C@@H]2O)ccc1Br (stereo partly drawn) [Compound 129]
category label: Y
--
molecule: Cc1ccc(C(=O)NC2c3cc(/N=C/N4CCCC4)ccc3C[C@@H]2O)cc1I (stereo partly drawn) [Compound 130]
category label: Y

====

molecular target: human m1 receptor (Homo sapiens, UniProt P11229); construct: expressed in transfected cells; host or cells: CHO (Chinese hamster) cells; assay: m1 primary assay: arachidonic acid release in CHO-m1 cells; assay type: cell-based
Sequence (P11229 whole entry): as the sequence (P11229 whole entry) above
Assign MET whenever Max. % activity @ 5 μM does not fall below 80%; assign NOT MET whenever it does.

compound: O=C(NC1c2cc(/N=C/N3CCCC3)ccc2C[C@H]1O)c1ccc(-c2ccccc2)cc1 (some centres unmarked) [Compound 134]
category label: NOT MET
//
compound: CN1CCC/C1=N\c1ccc2c(c1)C(NC(=O)c1ccc(-c3ccccc3)cc1)[C@H](O)C2 (some centres unmarked) [Compound 125]
category label: MET
//
compound: O=C(NC1c2cc(/N=C/N3CCCC3)ccc2CC1O)c1cccc(C(F)(F)F)c1 (centres unmarked) [Compound 123]
category label: NOT MET
//
compound: O=C(N[C@@H]1c2cc(/N=C/N3CCCC3)ccc2C[C@H]1O)c1ccc(-c2ccccc2)cc1 [Compound 120]
category label: MET
//
compound: CN(C)/C=N/c1ccc2c(c1)C(NC(=O)c1cccc(C(F)(F)F)c1)C(O)C2.Cl (centres unmarked) [Compound 126]
category label: MET
//
compound: O=C(N[C@@H]1c2cc(/N=C/N3CCOCC3)ccc2C[C@H]1O)c1ccc(-c2ccccc2)cc1 [Compound 119]
category label: NOT MET
//
compound: CN(C)/C=N/c1ccc2c(c1)[C@@H](NC(=O)c1ccc(Cl)cc1)[C@H](O)C2 [Compound 118]
category label: NOT MET
